endpoint.name: melting point

These solved cases illustrate the format of a correct answer.
Req: Please give measured melting point of the following entry: CCOC(=O)Cc1c[nH]c2cc(C3CC3)nn2c1=O
Resp: 280 to 283 °C

Req: Please give measured melting point of the following entry: CCOC(=O)c1c[nH]c2nc(Nc3ccc(NC(C)=O)cc3)nn2c1=O
Resp: > 330 °C

Req: Please give measured melting point of the following entry: O=C(O)c1cn(CCc2ccc(Cl)cc2)c2cc(C3CC3)nn2c1=O
Resp: 220 to 225 °C

Req: Please give measured melting point of the following entry: O=C(O)Cc1c[nH]c2cc(C3CC3)nn2c1=O
Resp: > 300 °C

Req: Please give measured melting point of the following entry: CCOC(=O)c1cn(CCc2ccc(OC)cc2)c2cc(C3CC3)nn2c1=O
Resp: 160 to 165 °C

The following compounds each have a reported value; give each one's melting point.
1. O=C(O)c1cn(CCCc2ccccc2)c2cc(C3CC3)nn2c1=O
2. CC(C)c1cc2n(CCc3ccccc3)cc(C(=O)O)c(=O)n2n1
3. CCOC(=O)Cc1c[nH]c2nc(Nc3ccccc3)nn2c1=O
4. O=C(O)c1cn(CCc2cccc(Cl)c2)c2cc(C3CC3)nn2c1=O
5. CCOC(=O)Cc1cn(C)c2cc(C3CC3)nn2c1=O
6. COc1ccc(CCn2cc(C(=O)O)c(=O)n3nc(C4CC4)cc23)cc1

Resp:
1: 95 to 100 °C; 2: 220 to 225 °C; 3: 255 to 257 °C; 4: 230 to 235 °C; 5: 147 to 150 °C; 6: 145 to 150 °C

The following compounds each have a reported value; give each one's melting point.
1. CCOC(=O)Cc1c[nH]c2cc(C(F)(F)F)nn2c1=O
2. CCOC(=O)c1c[nH]c2c(C#N)c(CCCNC)nn2c1=O
3. CCOC(=O)c1c[nH]c2cc(C(=O)NC3CCN(Cc4ccccc4)CC3)nn2c1=O
4. CCOC(=O)c1cn(CCc2ccccc2)c2cc(C3CCCC3)nn2c1=O

Resp:
1: 290 to 293 °C; 2: 285 to 287 °C; 3: 264 to 266 °C; 4: 162 to 164 °C
